These measurements were taken from PubChem BioAssay AID488969.

Molecular target: Metabotropic glutamate receptor 8 (Rattus norvegicus) (UniProt P70579)
Sequence (P70579 whole entry, looked up): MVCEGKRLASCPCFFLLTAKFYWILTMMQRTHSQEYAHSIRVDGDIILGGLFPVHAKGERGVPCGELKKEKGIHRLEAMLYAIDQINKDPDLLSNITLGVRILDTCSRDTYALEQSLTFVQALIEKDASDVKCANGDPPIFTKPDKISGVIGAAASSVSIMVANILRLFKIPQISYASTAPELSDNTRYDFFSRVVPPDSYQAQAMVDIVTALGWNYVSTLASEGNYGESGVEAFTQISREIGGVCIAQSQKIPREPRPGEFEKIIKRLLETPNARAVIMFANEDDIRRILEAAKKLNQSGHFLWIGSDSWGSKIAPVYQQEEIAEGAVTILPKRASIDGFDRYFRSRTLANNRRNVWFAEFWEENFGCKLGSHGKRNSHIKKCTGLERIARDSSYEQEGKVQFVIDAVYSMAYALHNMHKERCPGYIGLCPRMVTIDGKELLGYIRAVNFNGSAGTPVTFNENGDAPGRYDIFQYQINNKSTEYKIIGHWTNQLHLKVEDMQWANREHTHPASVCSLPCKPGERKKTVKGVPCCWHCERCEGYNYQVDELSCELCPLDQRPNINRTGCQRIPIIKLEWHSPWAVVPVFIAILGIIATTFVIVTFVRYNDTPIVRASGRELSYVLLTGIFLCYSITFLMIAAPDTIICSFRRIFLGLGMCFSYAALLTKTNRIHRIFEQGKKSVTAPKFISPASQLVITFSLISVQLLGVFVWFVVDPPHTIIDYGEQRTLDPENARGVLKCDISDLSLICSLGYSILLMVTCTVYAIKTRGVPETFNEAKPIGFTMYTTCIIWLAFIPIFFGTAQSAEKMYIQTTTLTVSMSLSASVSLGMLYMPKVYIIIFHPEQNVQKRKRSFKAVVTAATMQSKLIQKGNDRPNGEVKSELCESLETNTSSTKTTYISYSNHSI
Test: mGluR8 Gi/Go-coupled signaling modulation – cell-based, rat, thallium flux, HTS, primary screen (AID 488969)
Conditions: HEK293 rat mGluR8, GIRK thallium flux, FluoZin2; at 10 µM; stronger effect = higher value; submaximal glutamate (EC20) added with thallium
Whole data set: some 110,000 compounds, median “z-score” near -0.1, cut for the highest 2% near 2. Many of the other results were omitted from the sample, so the highest values are more common in it than they were.
Decide by z-score: equal to or exceeding -0.2 means TRUE, less means FALSE.

> print(dat)
                                   compound  label
1  COc1cc(CNCC(C)C)cc(Br)c1OCC(=O)Nc1ccccc1   TRUE
2  Cc1ccccc1C(=O)NNC(=S)Nc1cccc(C(F)(F)F)c1   TRUE
3  COc1c(Cl)cc(Cl)cc1C(=O)Nc1ccc(NC(=O)c2cccs2)cc1   TRUE

IN: Answer whether z-score of `CCCN(Cc1ccccc1)C(=S)Nc1cccc(C(F)(F)F)c1` is greater than or equal to -0.2.
OUT: FALSE

IN: Answer whether z-score of `S=C(Nc1cccc(Cl)c1Cl)Nn1cnnc1` is greater than or equal to -0.2.
OUT: FALSE

IN: Answer whether z-score of COc1ccc2c(-c3ccccc3)cc(SCC(=O)N(C)C3CCS(=O)(=O)C3)nc2c1 (stereo unspecified) is greater than or equal to -0.2.
OUT: TRUE

IN: Answer whether z-score of `O=C(CSc1nnc(NC(=O)C2CCC2)s1)Nc1ccc(N2CCOCC2)cc1` is greater than or equal to -0.2.
OUT: FALSE

IN: Answer whether z-score of `O=C(NNC(=S)Nc1cccc(C(F)(F)F)c1)c1cccc(Cl)c1` is greater than or equal to -0.2.
OUT: TRUE

IN: Answer whether z-score of `Cn1cc(-c2nc3ccccc3[nH]2)c2ccccc21` is greater than or equal to -0.2.
OUT: FALSE

IN: Answer whether z-score of `CCOC(=O)c1ccc(NC(=O)c2cc(OC)c(OC)c(OC)c2Br)cc1` is greater than or equal to -0.2.
OUT: TRUE

IN: Answer whether z-score of `CCOC(=O)N1CCC(N2C(=O)c3ccc(C(=O)NCc4ccco4)cc3C2=O)CC1` is greater than or equal to -0.2.
OUT: FALSE

----------
Target: Metabotropic glutamate receptor 8 (Rattus norvegicus)
Test: mGluR8 Gi/Go-coupled signaling modulation – cell-based, rat, thallium flux, HTS, primary screen (AID 488969)
Conditions: HEK293 rat mGluR8, GIRK (G protein-gated inwardly rectifying potassium channel) thallium flux, FluoZin2; at 10 µM; stronger effect = higher value; submaximal glutamate (EC20) added with thallium
Whole data set: some 110,000 compounds, median “z-score” near -0.1, cut for the highest 2% near 2. What follows is part of a selection rich in the highest values, with near analogues and random picks from the rest.
quantity-measured: z-score
Form field (numeric): enter value without unit.

Known z-score results, listed for orientation:
> print(dat)
                                   compound  reported
1  CCOC(=O)c1c(NS(=O)(=O)c2ccc(Br)cc2)sc2c1CCC2      16.1
2  CC(C)C(NS(=O)(=O)c1cccc2nsnc12)C(=O)NCc1ccc2c(c1)OCO2 (stereo unspecified)    -0.269
3       CN1CCN(C(=S)NC(=O)/C=C/c2ccccc2)CC1     0.401
4  COC(=O)c1c(NC(=O)COC(=O)[C@@H](NS(=O)(=O)c2ccc(C)cc2)C(C)C)sc2c1CCC2      2.02
5  CCn1cc(C(=O)O)c(=O)c2cc(F)c(N/N=C/c3ccccc3)cc21    -0.559

IN: For the compound shown here, `COc1ccc(CNC(=O)COC(=O)CCC2CCCCC2)cc1` , give the reported z-score.
OUT: -0.328

IN: For the compound shown here, CCOC(=O)C1=c2s/c(=C\c3cccnc3)c(=O)n2C(N)=C(C(=O)OC)C1c1cccnc1 (stereo unspecified) , give the reported z-score.
OUT: 0.984

IN: For the compound shown here, `COc1cccc(Nc2ccc(C(=O)O)cc2[N+](=O)[O-])c1` , give the reported z-score.
OUT: 0.594

IN: For the compound shown here, `Cc1cc(=O)[nH]c(SCC(=O)NCCc2ccccc2)n1` , give the reported z-score.
OUT: 1.96

IN: For the compound shown here, `Cc1ccccc1CN1CCN(CC(=O)NCc2ccccc2)C1=O` , give the reported z-score.
OUT: 0.0216

IN: For the compound shown here, `CCOC(=O)c1c(NS(=O)(=O)c2cccc(OC)c2)sc2c1CCC2` , give the reported z-score.
OUT: 16.9

IN: For the compound shown here, COC(=O)C1=NN(N=O)C2(CC(=O)N(c3cc(C)cc(C)c3)C2=O)C1 (stereo unspecified) , give the reported z-score.
OUT: -0.194
